Sourced from the supplement of paper PMC10567573

protocol: protein stability index of a GFP-peptide fusion (GPS, HEK-293T) (PSI 1-6); higher = more stable;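 also: 24-mer peptide tiles fused after GFP, lentivirally expressed, FACS-sorted into six equal bins by GFP/DsRed ratio, decoded by Illumina sequencing, PSI is the read-weighted mean bin number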
condition notes: treatment: DMSO; c terminus: a fixed tail appended
We use 4 as the dividing line for protein stability index: on or above the line is Yes, below is No.

Example entries begin here.
LDVERWLKPAMTQAQDEVEQERRL [FCHSD1]; Yes
EGPGEQETKLDLISKGEEPRAGKE [SLC29A1]; Yes
LYVVIPTRRSTAEAFQIVLSHLLG [SPNS1]; No

Test whether the sequence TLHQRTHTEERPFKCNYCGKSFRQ [ZNF449] records protein stability index of 4 or higher.
No

Try the sequence VVNTDHGSPEQLQIPVTDSGRHIL [SDE2]
Yes

Next sequence up: GQWLGGRQIRTNWATRKPPAPKST [TIA1]
No

Continue with AKEVTIAKADTTSTVTPVPGQEKG [EHMT1]
Yes
